# Test system: Escherichia coli TOP10;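 note: peptides expressed intracellularly from a pBAD plasmid library in pooled LB shake-flask culture, induced with 0.3% L-arabinose, DNA abundance read by NGS, three biological replicates, DESeq2 with apeglm shrinkage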
# testDescription: shrunken log2 fold change of peptide-encoding DNA abundance (4.5 h post-induction vs induction); higher = less antimicrobial activity (less host growth inhibition)
# recordedConditions: time post-induction: 4.5 h; library: site-saturation at positions 5, 18, 19, 20
Reported shrunken log2 fold change values are given for each entry in this list.
// print number alone

> print(dat)
            sequencerecord                  target                testreadout  measurednumber
1  RRIRPRPPRLPRPRPRPRNNPRP  Escherichia coli TOP10  shrunken log2 fold change          -0.228
2  RRIRHRPPRLPRPRPRPNTNPRP  Escherichia coli TOP10  shrunken log2 fold change           -0.74
3  RRIRDRPPRLPRPRPRPSPYPRP  Escherichia coli TOP10  shrunken log2 fold change           -1.07
4  RRIRCRPPRLPRPRPRPEHNPRP  Escherichia coli TOP10  shrunken log2 fold change          -0.377
5  RRIRPRPPRLPRPRPRPRGFPRP  Escherichia coli TOP10  shrunken log2 fold change           0.341
6  RRIRKRPPRLPRPRPRPPPMPRP  Escherichia coli TOP10  shrunken log2 fold change           0.826

// query Can you look up shrunken log2 fold change on Escherichia coli TOP10 for RRIRFRPPRLPRPRPRPQDKPRP ?
// result -0.308

Values were extracted from the supplement of paper PMC9112550.
